- System: LoVo
- assay: SRB colorimetric assay of cell growth and viability, LoVo
- Type: cell-based, human
- test parameters: 48 hours exposure, SRB
Where a SMILES comes first, the peptide text is derived from it. Bridges are numbered along the chain shown (N, C = ends). [ ]: non-standard residue; d: D form. The star is where a group is joined. d(aIle) = CC[C@H](C)[C@@H](N)C(=O)O; d(aThr) = C[C@@H](O)[C@@H](N)C(=O)O; Hexanoyl(5-Me) = CC(C)CCCC(=O)*; Orn = NCCC[C@H](N)C(=O)O; Aib = CC(C)(N)C(=O)O
test readout: TGI LOVO (Molar)

| molecule | recorded measurement |
| --- | --- |
| C/C=C1\NC(=O)[C@H](Cc2ccc(Cl)c(Cl)c2)NC(=O)[C@@H](C(C)C)NC(=O)[C@@H]([C@@H](C)CC)NC(=O)[C@H](NC(=O)[C@H](NC(=O)[C@H](CCCN)NC(=O)[C@H]2CCCN2C(=O)[C@H](NC(=O)[C@@H](NC(=O)[C@@H](NC(=O)[C@H](NC(=O)CC[C@@H](C)CC)C(C)C)[C@@H](C)O)C(C)C)C(C)C)[C@@H](C)CC)[C@@H](C)OC(=O)[C@H](C(C)C)NC1=O [Compound 70, [Phe(3,4-Cl2)^3, (4S)-MeHex^14]-KF] | 4.11E−07 |
| C/C=C1\NC(=O)[C@H](Cc2ccccc2)N(C)C(=O)[C@@H](C(C)C)NC(=O)[C@@H]([C@@H](C)CC)NC(=O)[C@H](NC(=O)[C@H](NC(=O)[C@H](CCCN)NC(=O)[C@H]2CCCN2C(=O)[C@H](NC(=O)[C@@H](NC(=O)[C@@H](NC(=O)[C@H](NC(=O)CC[C@@H](C)CC)C(C)C)[C@@H](C)O)C(C)C)C(C)C)[C@@H](C)CC)[C@@H](C)OC(=O)[C@H](C(C)C)NC1=O [Compound 80, [NMePhe^3, (4S)-MeHex^14]-KF] | 2.61E−07 |
| C/C=C1\NC(=O)[C@H](Cc2ccc(F)cc2)NC(=O)[C@@H](C(C)C)NC(=O)[C@@H]([C@@H](C)CC)NC(=O)[C@H](NC(=O)[C@H](NC(=O)[C@H](CCCN)NC(=O)[C@H]2CCCN2C(=O)[C@H](NC(=O)[C@@H](NC(=O)[C@@H](NC(=O)[C@H](NC(=O)CC[C@@H](C)CC)C(C)C)[C@@H](C)O)C(C)C)C(C)C)[C@@H](C)CC)[C@@H](C)OC(=O)[C@H](C(C)C)NC1=O [Compound 74, [Phe(4-F)^3, (4S)-MeHex^14]-KF] | 2.35E−07 |
| CC[C@H](C)[C@@H](NC(=O)[C@H](CCCN)NC(=O)[C@H]1CCCN1C(=O)[C@H](NC(=O)[C@@H](NC(=O)[C@@H](NC(=O)[C@H](NC(=O)CCCC(C)C)C(C)C)[C@@H](C)O)C(C)C)C(C)C)C(=O)N[C@H]1C(=O)N[C@H]([C@@H](C)CC)C(=O)N[C@H](C(C)C)C(=O)N[C@@H](Cc2ccccc2)C(=O)NC(C)(C)C(=O)N[C@@H](C(C)C)C(=O)O[C@@H]1C [Compound 66, [Aib^2]-KF] ({Hexanoyl(5-Me)}-[dV]TV[dV][dP][Orn][d(aIle)][d(aThr)][d(aIle)][dV]F[Aib]V; ester 8-C) | 2.47E−06 |
| C/C=C1\NC(=O)[C@H](Cc2c(F)c(F)c(F)c(F)c2F)NC(=O)[C@@H](C(C)C)NC(=O)[C@@H]([C@@H](C)CC)NC(=O)[C@H](NC(=O)[C@H](NC(=O)[C@H](CCCN)NC(=O)[C@H]2CCCN2C(=O)[C@H](NC(=O)[C@@H](NC(=O)[C@@H](NC(=O)[C@H](NC(=O)CC[C@@H](C)CC)C(C)C)[C@@H](C)O)C(C)C)C(C)C)[C@@H](C)CC)[C@@H](C)OC(=O)[C@H](C(C)C)NC1=O [Compound 71, [Phe(F5)^3, (4S)-MeHex^14]-KF] | 2.77E−07 |
| C/C=C1\NC(=O)[C@@H](Cc2ccccc2)NC(=O)[C@H](C(C)C)NC(=O)[C@H]([C@H](C)CC)NC(=O)[C@@H](NC(=O)[C@@H](NC(=O)[C@@H](CCCN)NC(=O)[C@@H]2CCCN2C(=O)[C@@H](NC(=O)[C@H](NC(=O)[C@H](NC(=O)[C@@H](NC(=O)CCCC(C)C)C(C)C)[C@H](C)O)C(C)C)C(C)C)[C@H](C)CC)[C@H](C)OC(=O)[C@@H](C(C)C)NC1=O | 6.77E−06 |
| C/C=C1\NC(=O)[C@H](Cc2ccccc2)NC(=O)[C@@H](C(C)C)NC(=O)[C@@H]([C@@H](C)CC)NC(=O)[C@H](NC(=O)[C@H](NC(=O)[C@H](CCCNC(=O)C(F)(F)F)NC(=O)[C@H]2CCCN2C(=O)[C@H](NC(=O)[C@@H](NC(=O)[C@@H](NC(=O)[C@H](NC(=O)CC[C@@H](C)CC)C(C)C)[C@@H](C)OC(=O)C(F)(F)F)C(C)C)C(C)C)[C@@H](C)CC)[C@@H](C)OC(=O)[C@H](C(C)C)NC1=O | 2.34E−07 |
| C/C=C1\NC(=O)[C@H](Cc2ccccc2)NC(=O)[C@@H](C(C)C)NC(=O)[C@@H]([C@@H](C)CC)NC(=O)[C@H](NC(=O)[C@H](NC(=O)[C@H](CCCN)NC(=O)[C@H]2CCCN2C(=O)[C@H](NC(=O)[C@@H](NC(=O)[C@@H](NC(=O)[C@H](NC(=O)CC[C@@H](C)[C@H]2CC[C@H]3[C@@H]4CC[C@@H]5C[C@H](OC(=O)C(F)(F)F)CC[C@]5(C)[C@H]4CC[C@]23C)C(C)C)[C@@H](C)OC(=O)C(F)(F)F)C(C)C)C(C)C)[C@@H](C)CC)[C@@H](C)OC(=O)[C@H](C(C)C)NC1=O | 3.01E−07 |
| C/C=C1\NC(=O)[C@H](Cc2ccc(I)cc2)NC(=O)[C@@H](C(C)C)NC(=O)[C@@H]([C@@H](C)CC)NC(=O)[C@H](NC(=O)[C@H](NC(=O)[C@H](CCCN)NC(=O)[C@H]2CCCN2C(=O)[C@H](NC(=O)[C@@H](NC(=O)[C@@H](NC(=O)[C@H](NC(=O)CC[C@@H](C)CC)C(C)C)[C@@H](C)O)C(C)C)C(C)C)[C@@H](C)CC)[C@@H](C)OC(=O)[C@H](C(C)C)NC1=O [Compound 72, [Phe(4-I)^3, (4S)-MeHex^14]-KF] | 2.35E−07 |
